Recorded values, source ChEMBL document CHEMBL6083280.

Give IC50 for every item shown.
- target of assay: Replicase polyprotein 1ab (Severe acute respiratory syndrome coronavirus 2, UniProt P0DTD1)
One number for each entry, in nM.

CC[C@H](C)[C@@H]1NC(=O)[C@@H](Cc2ccc(O)cc2)NC(=O)CSC[C@@H](C(N)=O)NC(=O)[C@H](C(C)C)NC(=O)[C@H](CC(C)C)NC(=O)[C@@H]2CCCN2C(=O)[C@H](Cc2ccccc2)NC(=O)[C@H]([C@@H](C)O)NC(=O)[C@H](Cc2c[nH]cn2)NC1=O    1400

Okay, next one:
Q) Recorded IC50 of CC[C@H](C)[C@@H]1NC(=O)[C@@H](Cc2ccc(O)cc2)NC(=O)CSC[C@@H](C(N)=O)NC(=O)[C@H]([C@@H](C)CC)NC(=O)[C@@H]2CCCN2C(=O)[C@@H]2CCCN2C(=O)[C@H](Cc2ccccc2)NC(=O)[C@H](CO)NC(=O)[C@H](CCC(N)=O)NC1=O , please.
A) 1400
